pIC50 by entry:
TEST TARGET: GST-Aurora A (Homo sapiens)
Construct: N-terminal GST fusion with full length Aurora A (1-403 amino acids)
Sequence (O14965 1-403): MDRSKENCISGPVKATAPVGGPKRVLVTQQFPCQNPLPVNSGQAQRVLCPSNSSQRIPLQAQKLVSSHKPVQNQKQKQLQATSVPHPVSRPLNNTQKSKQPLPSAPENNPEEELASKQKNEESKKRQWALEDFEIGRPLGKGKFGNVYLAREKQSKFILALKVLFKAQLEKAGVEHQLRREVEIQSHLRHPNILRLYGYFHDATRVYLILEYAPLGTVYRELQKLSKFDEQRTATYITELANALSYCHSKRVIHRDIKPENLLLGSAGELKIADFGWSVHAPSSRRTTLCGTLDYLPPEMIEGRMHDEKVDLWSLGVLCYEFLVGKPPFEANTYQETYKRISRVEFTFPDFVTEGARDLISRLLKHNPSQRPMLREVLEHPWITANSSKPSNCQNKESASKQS
TEST METHOD NOTES: Aurora A IC50, Caliper LC3000 mobility shift assay
CONDITIONS: LC3000 method; 15 uM ATP (the KM value); read-out: Aurora Kinase A Activity (IC50)
pIC50: −log10 of the molar value.

Examples with their reported pIC50 follow.
O=C(Nc1ccc(Nc2ccnc3[nH]c(=O)c4ccccc4c23)cc1)c1cc(F)cc(C(F)(F)F)c1; > 7.96
O=C(Nc1ccc(Nc2ccnc3[nH]c(=O)c4ccc(F)cc4c23)cc1)c1ccc(F)cc1; > 7.96

Proceed to the following item.
[Q] Name the recorded pIC50 of the molecule listed here: O=c1[nH]c2nccc(Oc3ccc(NS(=O)(=O)c4cccc(Cl)c4Cl)cc3)c2c2ccccc12
[A] 7.00 to 7.96
